Test: Viability of HT-29 human colon cancer cells, MTT assay
Format: cell-based
Settings: HT-29 colon cancer cells, 10 μM, 72 h exposure, HT-29, MTT, read-out: Cell viability rate as a percent of the vehicle (DMSO)-treated cells
Quantity measured: viability at 72 h, 10 µM (%)
Could you give me the number in %? Just the number is fine.

**Q:** Need viability at 72 h, 10 µM, item "Nc1ccc(O)c(C(=O)O)c1"
**A:** 91.1

**Q:** Would you kindly share the measured viability at 72 h, 10 µM for "Nc1ccc(O)c(C(=O)Oc2ccc(-c3cc(=S)ss3)cc2)c1" ?
**A:** 79.6
